experiment.summary: Single dose pharmacokinetic study after oral administration, with and without ABT pre-dosing
Assay type: in vivo, female Balb/c mice
details: female, Balb/c, mouse, in vivo, 2 h; PO 200 mg/kg + 100 mg/kg ABT; read-out: Drug plasma concentration, Average
Would you kindly list concentration at 2 h for each of these molecules?
The answer is to be given in ng/mL; state only the numeric part.

What concentration at 2 h value was documented for this molecule, [2H]c1c(C([2H])([2H])[2H])c([2H])n2c(C(=O)NCc3ccc(C(F)(F)F)cc3)c(C)nc2c1[2H] ?
34300

What concentration at 2 h value was documented for this molecule, Cc1ccc2nc(C)c(C(=O)NCc3ccc(C(F)(F)F)cc3)n2c1 ?
34600
